# System: Human breast cancer cell line T47D
# EXPERIMENT_DESCRIPTION: Cell based caspase-3 activity assay: potentiation of MMS induced apoptosis
# MEASUREMENT_SETUP: T47D cells, 11.1 μg/ml MMS, 24 hours, intracellular caspase-3 activity; hydrochloride; read-out: EC50 (nM), potentiation of the apoptosis inducing activity of MMS
Structures can show the parent of a compound that is named as a salt.
MEASUREMENT_LABEL: EC50 (nM)
Response body: numeric value in nM, unit text excluded.

> print(dat)
                                   molecule  endpoint.value
1  O=C(c1cc(Cn2c(=O)[nH]c(=O)c3c(F)cccc32)ccc1F)N1CCN(c2ncccn2)CC1 [Example 193, hydrochloride]             1.6

# input for lookup
Ask: Report EC50 for O=C(c1cc(Cn2c(=O)[nH]c(=O)c3ccccc32)ccc1F)N1CCN(c2ncccn2)CC1 [Example 192, hydrochloride] please.
Reply: 3.1
